test: Combination therapy with carboplatin in children with advanced neuroblastoma; format: in vivo, human; conditions: human; plasma, one of the children treated

compound	Cmax (ng/mL)
COc1cc([C@@H]2c3cc4c(cc3C(OC3OC5COC(C)OC5C(O)C3O)C3COC(=O)[C@@H]32)OCO4)cc(OC)c1OC(=O)OCC(O)CO (stereo partly shown) [CAP7.1]	3700

---

assay: Half life in humans; conditions: human, in vivo
parameter.measured: half-life

> print(dat)
                                   compound  recorded.value
1  COc1cc([C@@H]2c3cc4c(cc3C(OC3OC5COC(C)OC5C(O)C3O)C3COC(=O)[C@@H]32)OCO4)cc(OC)c1OC(=O)OCC(O)CO (stereo partly shown)    15 to 30 min
